Please go through the items and note down their TGI.
Test system: COLO 205 colon
Experiment: NCI tumour cell line growth inhibition, 48 h

Example entries begin here.
compound	TGI
Oc1cccc2cc(Cl)cnc12	> 100 µM
c1ccc(C2=NOC3COc4ccccc4OCC23)cc1 (stereo unspecified)	> 100 µM
O=C(O)c1cc2cc(OCc3ccccc3)ccc2[nH]1	> 100 µM
C[C@H](NS(=O)(=O)c1ccc(NC(=O)c2ccccc2)cc1)C(=O)O	> 100 µM
Cc1ccc(C(=O)CCl)o1	> 8.18 µM

From here, focus on the item given below.
**Query** Quickly give me recorded TGI for CCCCCCC(C)c1ccc2c(c1)C(=O)c1nc3ccncc3c(=O)n1-2 (stereo unspecified)
**Result** > 39.1 µM
